Where do the numbers come from? From the supplement of paper PMC10724198.

# key: entry, value: protein stability index
# Tested on: Saccharomyces cerevisiae;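 note: PSI is a weighted mean of sequencing reads over stability bins, variants kept only with over 10 reads, mCherry proximal and sfGFP distal, peptide attached via GGGS linker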
# assay.explanation: protein stability index of tFT-peptide fusion (C-terminal peptide) (PSI (0-1 scale)); higher = more stable (slower turnover)
# condition.context: genetic background: wild type; temperature: 30 C
Answer field: number only, no words.

Known protein stability index results, listed for orientation:
- PLRPPPPPLAPP: 0.697
- SIVAWGWPAASE: 0.85
- CGGDGRTPTTHT: 0.665
- YLTNIHQRVLLP: 0.659
- YPTCPPPSARRV: 0.58

Fill in the blank: the reported protein stability index of LPPPSPTPPPPP is ____.
0.683

Request the reported protein stability index associated with PVPVFLLLFFSP
0.496

What value of protein stability index has been recorded for this entry: RKGKARKKQKRI
0.721

Please give the measured protein stability index for this sequence: RCGRGVAAEWLS
0.668

Given PRLPHPPPPLPL , state its recorded protein stability index.
0.669

Dear colleague, I am looking for the recorded protein stability index of the following sequence: ESCFGMAIFCVT
0.466

Request the reported protein stability index associated with VGICCCKTYCCS
0.656
